ENDPOINT_LABEL: melting point

* COC(=O)c1nc(-c2ccc(Cl)cc2)nc(NCc2ccco2)c1Cl | 132 to 134 °C
* NC(=O)c1nc(C2CC2)nc(NCc2ccco2)c1Cl | 126 to 128 °C
* O=C(O)c1nc(C2CC2)nc(NCc2ccco2)c1Cl | 150 to 152 °C
* COC(=O)c1nc(Cl)nc(NCc2ccco2)c1Cl | 110 to 112 °C
* C=Cc1c(NCc2ccco2)nc(C2CC2)nc1C(=O)OC | 85 to 86 °C

###

System: Alopecurus myosuroides (ALOMY)
EXPERIMENT: Pre-emergence biological efficacy, glasshouse pot test
Type: in vivo
RUN_CONDITIONS: 312 h, pre-emergence, rate 1,000 g/ha, evaluated after 13 days (100=total damage to plant; 0=no damage), read-out: Percentage damage caused to weed species, ALOMY
Values of pest or weed control at 1000 g/ha strictly less than 10% map to YES, and values of at least 10% map to NO.

* COC(=O)c1nc(-c2ccc(C)cc2)nc(NCc2ccco2)c1Cl [Compound 237-48] | NO
* COC(=O)c1nc(C2CC2)nc(N(C)Cc2cccc(F)c2)c1Cl [Compound 5-65] | NO
* C=Cc1ccc(-c2c(NCc3ccco3)nc(C3CC3)nc2C(=O)OC)cc1 [Compound 187-125] | YES
* CCOc1ccc(CN(C)c2nc(C3CC3)nc(C(=O)OC)c2Cl)cc1OCC [Compound 5-114] | YES
* COC(=O)c1nc(C2CC2)nc(N(C)[C@@H](Cc2ccccc2)C(=O)OC)c1Cl [5-283 (S)] | YES
* COC(=O)c1nc(C2CC2)nc(N(C)Cc2ccccc2Cl)c1Cl [Compound 5-61] | NO
* COC(=O)c1nc(-c2ccc(C(F)(F)F)cc2C(F)(F)F)nc(NCc2ccco2)c1Cl [Compound 234-48] | NO
* COC(=O)c1nc(-c2ccc(Cl)cc2F)nc(NCc2ccco2)c1Cl [Compound 218-48] | NO
* CCOC(=O)c1nc(C2CC2)nc(NCc2ccccc2)c1Cl [Compound 7-60] | NO
* O=C(NCc1ccco1)c1nc(C2CC2)nc(NCc2ccco2)c1Cl [Compound 265-3] | NO
* C=CCN(Cc1ccccc1)c1nc(C2CC2)nc(C(=O)OC)c1Cl [Compound 151-60] | NO
* CCCN(Cc1ccccc1F)c1nc(C2CC2)nc(C(=O)OC)c1Cl [Compound 145-64] | YES
* COC(=O)c1nc(C2CC2)nc(N(C)Cc2cc(OC)cc(OC)c2)c1Cl [Compound 5-113] | YES
* COC(=O)c1nc(-c2ccc(Cl)c(Cl)c2Cl)nc(NCc2ccco2)c1Cl [Compound 231-48] | NO
